From: the supplement of paper PMC11208160

# EXPERIMENT NOTES: recombinant UMI read abundance after kanamycin selection (control-corrected) (log10(CPM+1)); higher = more efficient recombination; extreme values may be limits of the assay; sequences stand for … in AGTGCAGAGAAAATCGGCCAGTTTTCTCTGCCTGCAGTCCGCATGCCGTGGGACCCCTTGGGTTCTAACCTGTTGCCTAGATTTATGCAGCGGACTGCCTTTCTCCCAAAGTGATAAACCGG…AGGTTGGTTTCACT; site = the 11-nt donor
Criterion: recombinant UMI read abundance (log10) meeting or surpassing 0.3. Met: satisfied. Not met: not satisfied.

>>> classification("CTACTTACATGGACCGGTTTTCCCGGTAATCCGTATTTGGA (site CTACTCACTTC)")
"not satisfied"
>>> classification("GGTCGAACATGGACCGGTTTTCCCGGTAATCCGTATTTGTA (site GGTCAAACTTA)")
"not satisfied"
>>> classification("AGGACTACATGGACCGGTTTTCCCGGTAATCCGTATTTGTC (site AGGACTACTGA)")
"satisfied"
>>> classification("AGTACCACATGGACCGGTTTTCCCGGTAATCCGTATTTGTT (site AGTACCACTAA)")
"not satisfied"
>>> classification("TCGCCTGCATGGACCGGTTTTCCCGGTAATCCGTATTTGGT (site TCGCCTGCTAC)")
"not satisfied"
>>> classification("GCCAACACATGGACCGGTTTTCCCGGTAATCCGTATTTGAT (site GCCAACACTAT)")
"satisfied"
>>> classification("CACTTAGCATGGACCGGTTTTCCCGGTAATCCGTATTTGGA (site CACTTCGCTTC)")
"not satisfied"
>>> classification("CCAATATCATGGACCGGTTTTCCCGGTAATCCGTATTTGAG (site CCAATATCTCT)")
"satisfied"
>>> classification("CTACTAACATGGACCGGTTTTCCCGGTAATCCGTATTTGGT (site CTACTAACTCC)")
"not satisfied"

###

Documented recombinant barcode read abundance (log10) across a set of sequences
# EXPERIMENT NOTES: recombinant barcode read abundance after kanamycin selection (control-corrected) (log10(CPM+1)); higher = more efficient recombination; sequences stand for … in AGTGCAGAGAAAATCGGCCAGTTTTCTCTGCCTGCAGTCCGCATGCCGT…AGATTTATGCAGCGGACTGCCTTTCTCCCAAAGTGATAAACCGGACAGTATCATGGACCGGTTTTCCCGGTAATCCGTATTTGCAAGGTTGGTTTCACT; site = the 11-nt target
PROPERTY NAME: recombinant barcode read abundance (log10)

>>> assay_result("ACGTCAACTTGGGTTCTAACCTGTTGCCT (site ACTTCAACTAG)")
0.0307
>>> assay_result("CGTTGCCCTTGGGTTCTAACCTGTTGCCT (site CTTTGCCCTAG)")
0.468
>>> assay_result("GTCGAGCCTTGGGTTCTAACCTGTTGCCT (site GTCGAGCCTAG)")
2.12
>>> assay_result("TACAGCTCTTGGGTTCTAACCTGTTGCTT (site TACGGCTCTAA)")
0.0374
>>> assay_result("CGATAGCCTTGGGTTCTAACCTGTTGCCT (site CGATAGCCTAG)")
0.643
>>> assay_result("CCGTAATCTTGGGTTCTAACCTGTTGCCT (site CCGTAAACTAG)")
0.0257
>>> assay_result("GTTAGCCCTTGGGTTCTAACCTGTTGCAT (site TCACAGACTCG)")
0.0525
>>> assay_result("CGATTAACTTGGGTTCTAACCTGTTGCCT (site CGATTAACTAG)")
0.139
>>> assay_result("TAGACTCCTTGGGTTCTAACCTGTTGCCA (site ACTTGAGCTAT)")
0.336
>>> assay_result("CACTCCTCTTGGGTTCTAACCTGTTGCTT (site CACTCCTCTAA)")
0.0523

###

# reported recombinant UMI read abundance (log10); entries follow
# EXPERIMENT NOTES: recombinant UMI read abundance after kanamycin selection (control-corrected) (log10(CPM+1)); higher = more efficient recombination; extreme values may be limits of the assay; sequences stand for … in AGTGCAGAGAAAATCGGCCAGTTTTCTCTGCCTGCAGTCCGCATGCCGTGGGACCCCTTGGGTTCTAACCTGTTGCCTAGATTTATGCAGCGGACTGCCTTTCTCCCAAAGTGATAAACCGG…AGGTTGGTTTCACT; site = the 11-nt donor
PROPERTY NAME: recombinant UMI read abundance (log10)

>>> assay_result("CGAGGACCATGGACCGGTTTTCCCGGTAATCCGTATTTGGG (site CGAGGACCTCG)")
0
>>> assay_result("CTCTACACATGGACCGGTTTTCCCGGTAATCCGTATTTGTT (site CTCTACACTAG)")
1.45
>>> assay_result("GGTACGTCATGGACCGGTTTTCCCGGTAATCCGTATTTGCT (site GGTACGTCTAA)")
0.0386
>>> assay_result("GGATACACATGGACCGGTTTTCCCGGTAATCCGTATTTGGG (site GGATACACTCC)")
0.348
>>> assay_result("CAGCCAACATGGACCGGTTTTCCCGGTAATCCGTATTTGCA (site CAGCCAACTTG)")
2.34
>>> assay_result("CACTACTCATGGACCGGTTTTCCCGGTAATCCGTATTTGTT (site CACTACTCTAA)")
2.71
>>> assay_result("AAGCTAGCATGGACCGGTTTTCCCGGTAATCCGTATTTGAA (site GAGCTAGCTTT)")
0.00246
>>> assay_result("TATCATTCATGGACCGGTTTTCCCGGTAATCCGTATTTGGG (site TATCATTCTCC)")
0.00534
>>> assay_result("GCTAGAACATGGACCGGTTTTCCCGGTAATCCGTATTTGGC (site GGTAGAACTGC)")
0

###

# EXPERIMENT NOTES: recombinant UMI read abundance after kanamycin selection (control-corrected) (log10(CPM+1)); higher = more efficient recombination; extreme values may be limits of the assay; sequences stand for … in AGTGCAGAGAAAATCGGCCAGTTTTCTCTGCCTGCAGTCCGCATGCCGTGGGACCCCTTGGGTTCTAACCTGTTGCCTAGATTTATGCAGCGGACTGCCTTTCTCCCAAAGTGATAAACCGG…AGGTTGGTTTCACT; site = the 11-nt donor
PROPERTY NAME: recombinant UMI read abundance (log10)

>>> assay_result("TCATACACATGGACCGGTTTTCCCGGTAATCCGTATTTGCA (site TCATACCCTTG)")
0.302
>>> assay_result("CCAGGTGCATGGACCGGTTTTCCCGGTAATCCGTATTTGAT (site CCAGGTCCTAT)")
0
>>> assay_result("TCATACTCATGGACCGGTTTTCCCGGTAATCCGTATTTGGA (site TCATACTCTTG)")
0
>>> assay_result("GTGTATACATGGACCGGTTTTCCCGGTAATCCGTATTTGCT (site GTGTATACTAG)")
2.44
>>> assay_result("CGACCATCATGGACCGGTTTTCCCGGTAATCCGTATTTGCT (site CGACCATCTAG)")
2.13
>>> assay_result("GGCCAGACATGGACCGGTTTTCCCGGTAATCCGTATTTGAC (site GGCCAGACTGT)")
0.867
>>> assay_result("GCCACCCCATGGACCGGTTTTCCCGGTAATCCGTATTTGTA (site GCCACTCCTTA)")
0.0101
>>> assay_result("TGTCCACCATGGACCGGTTTTCCCGGTAATCCGTATTTGAC (site TGTGCACCTGT)")
0
>>> assay_result("GAGAAGACATGGACCGGTTTTCCCGGTAATCCGTATTTGAA (site GAGAAGACTTT)")
1.82

###

# EXPERIMENT NOTES: recombinant barcode read abundance after kanamycin selection (control-corrected) (log10(CPM+1)); higher = more efficient recombination; sequences stand for … in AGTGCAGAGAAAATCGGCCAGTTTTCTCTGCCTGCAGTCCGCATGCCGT…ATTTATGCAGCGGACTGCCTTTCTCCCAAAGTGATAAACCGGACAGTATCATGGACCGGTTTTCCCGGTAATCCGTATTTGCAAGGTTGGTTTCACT; site = the 11-nt target
Outcome: Yes for recombinant barcode read abundance (log10) of at least 0.2; No for anything lower.

>>> classification("ATGCTTTCTTGGGTTCTAACCTGTTGCCTAG [ATGCTTTCTAG_LTGcore_CT_RTGcore_CT] (site ATGCTTTCTAG) (LTG core: CT, RTG core: CT)")
"Yes"
>>> classification("GGGCGGACTTGGGTTCTAACCTGTTGCGGGA [GGGCGGACTCC_LTGcore_CT_RTGcore_TC] (site GGGCGGACTCC) (LTG core: CT, RTG core: TC)")
"Yes"
>>> classification("AGGCGGGGTTGGGTTCTAACCTGTTGCGGAG [AGGCGGGCTCC_LTGcore_GT_RTGcore_CT] (site AGGCGGGCTCC) (LTG core: GT, RTG core: CT)")
"Yes"
>>> classification("GGACACCCTTGGGTTCTAACCTGTTGCCTGA [GGACACCCTAG_LTGcore_CT_RTGcore_TC] (site GGACACCCTAG) (LTG core: CT, RTG core: TC)")
"Yes"
>>> classification("ATGCTTTCTTGGGTTCTAACCTGTTGCCTGA [ATGCTTTCTAG_LTGcore_CT_RTGcore_TC] (site ATGCTTTCTAG) (LTG core: CT, RTG core: TC)")
"No"
>>> classification("GAGTCCTGGTGGGTTCTAACCTGTTGCCTAG [GAGTCCTCTAG_LTGcore_GG_RTGcore_CT] (site GAGTCCTCTAG) (LTG core: GG, RTG core: CT)")
"No"
>>> classification("TTATAAACTTGGGTTCTAACCTGTTGCCTGT [TTATAAACTAG_LTGcore_CT_RTGcore_AC] (site TTATAAACTAG) (LTG core: CT, RTG core: AC)")
"No"
>>> classification("AGGCGGTCTTGGGTTCTAACCTGTTGCTTCC [AGGCGGTCTAA_LTGcore_CT_RTGcore_GG] (site AGGCGGTCTAA) (LTG core: CT, RTG core: GG)")
"No"
>>> classification("AGTCTTAATTGGGTTCTAACCTGTTGCCAAT [AGTCTTACTTG_LTGcore_AT_RTGcore_AT] (site AGTCTTACTTG) (LTG core: AT, RTG core: AT)")
"No"
